Biological target: T1, PUF4 RNA-binding domain (Saccharomyces cerevisiae, UniProt P25339 537-888)
T1 sequence: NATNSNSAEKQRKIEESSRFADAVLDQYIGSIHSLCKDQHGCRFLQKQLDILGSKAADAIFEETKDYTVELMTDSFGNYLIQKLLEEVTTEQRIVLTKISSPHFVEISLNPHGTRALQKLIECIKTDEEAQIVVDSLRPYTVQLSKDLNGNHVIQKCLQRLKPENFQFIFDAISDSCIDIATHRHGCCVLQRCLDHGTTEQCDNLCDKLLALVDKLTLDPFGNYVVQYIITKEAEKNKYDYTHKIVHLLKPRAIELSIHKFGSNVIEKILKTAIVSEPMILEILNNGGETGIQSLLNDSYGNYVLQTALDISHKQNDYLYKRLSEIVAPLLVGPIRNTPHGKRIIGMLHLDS
Test: Mg; RNA-MaP; 20 mM Na-HEPES pH 7.4, 30 mM KOAc, 0.75 mM MgCl2, 0.1% Tween-20, 5% glycerol, 0.1 mg/mL BSA, 2 mM DTT; 25 C; 0.0125-409.6 nM protein
Settings: tags: N-His6-TEV cleaved; C-SNAP kept, Cy3B-labelled; label: tethered on chip by stalled RNA polymerase
Assign labels as follows, please: true for Kd below 80 nM; false for Kd equal to or exceeding 80 nM.

Previously resolved entries follow.
QUERY: Is 80 nM strictly greater than the binder's reported Kd? binder: UCUCUUAAACACUAUUACCUCUCUU (ssRNA) [Id_ii_S1_P4E.4_K4.3_C4.2_[C-2A]_[T-1A]_H4.3_A4.1_F4.1_T4.2_[G10C]_[T11C]]
RESULT: false

QUERY: Proceed to Id_ii_S4_P4E.3_K4.2_C4.2_H4.2_A4.1_F4.1_T4.2_[G10A]_[T11C] (ssRNA) RNA: UUUGACAACUGAUCGUUCUUUCUCUUAUAUAUUAACUUCUUUCUCGAUCAGUUGUCUUU
RESULT: true

QUERY: Proceed to Ib_S2_P3E.1_K3.1_C3.1_H3.1_[G2A]_A3.1_[A6G]_F3.1_T3.1 (ssRNA) RNA: UUUGAUUAAUAUGAUAUCGUUCUUUCUUAUAUGUAUUCUUUCUCGAUAUCAUAUUAAUCUUU
RESULT: true

QUERY: Proceed to UCUCUUUGUAUCGCUCUCUU (ssRNA) [Ic_S1_P3E.1_K3.1_C3.1_H3.1_A3.1_[A6C]_F3.1_[T7G]_[A8C]_T3.1]
RESULT: false

Further cases:
QUERY: Is 80 nM strictly greater than the binder's reported Kd? binder: Ie_S2_P3E.2_K3.1_C3.2_H3.1_A3.1_F3.1_[+8CCTCT]_T3.2 (ssRNA) RNA: UUUGAUUAAUAUGAUAUCGUUCUUUCUCUUGUAUAUACCUCUUAUUCUUUCUCGAUAUCAUAUUAAUCUUU
RESULT: true

QUERY: Proceed to UCUCUUAUACACUAUUAAUUCUCUU (ssRNA) [Id_ii_S1_P4E.4_K4.3_C4.2_[C-2A]_H4.3_A4.1_F4.1_T4.2_[G10A]]
RESULT: true

QUERY: Proceed to Ie_S4_P4E.1_K4.1_C4.1_H4.1_A4.1_[+5TCC]_F4.1_T4.1 (ssRNA) RNA: UUUGACAACUGAUCGUUCUUUCUUGUAUUCCAUUAUUCUUUCUCGAUCAGUUGUCUUU
RESULT: true

QUERY: Proceed to UCUCUUUGUACUGCGCUCUCUU (ssRNA) [Ic_S1_P5E.1_K5.1_C5.1_H5.1_A5.1_[T5C]_[A7G]_F5.1_[T8C]_[T9G]_[A10C]_T5.1]
RESULT: false

QUERY: Proceed to Ic_S2_P3E.1_K3.1_C3.1_H3.1_A3.1_[A6G]_F3.1_T3.1 (ssRNA) RNA: UUUGAUUAAUAUGAUAUCGUUCUUUCUUGUAUGUAUUCUUUCUCGAUAUCAUAUUAAUCUUU
RESULT: true

Where these numbers come from: paper PMC9352680
